Biological target: Muscarinic acetylcholine receptor M1 (Homo sapiens)
Sequence (P11229 whole entry): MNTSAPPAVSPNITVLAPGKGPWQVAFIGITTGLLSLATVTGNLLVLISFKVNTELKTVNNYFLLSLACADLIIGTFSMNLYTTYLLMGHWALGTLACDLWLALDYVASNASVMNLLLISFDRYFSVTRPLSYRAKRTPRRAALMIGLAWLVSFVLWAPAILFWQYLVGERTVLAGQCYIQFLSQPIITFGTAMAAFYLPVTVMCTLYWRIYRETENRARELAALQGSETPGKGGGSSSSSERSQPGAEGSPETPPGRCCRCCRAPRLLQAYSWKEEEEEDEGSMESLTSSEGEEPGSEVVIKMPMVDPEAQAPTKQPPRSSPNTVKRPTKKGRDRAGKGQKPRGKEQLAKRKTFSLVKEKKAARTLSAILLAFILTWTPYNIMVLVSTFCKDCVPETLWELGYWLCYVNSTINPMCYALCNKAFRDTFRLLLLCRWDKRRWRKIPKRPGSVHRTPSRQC
pKi: −log10 of the molar value.
The following compounds are shown together with reported pKi values.
result-type: pKi

compound_string=N=C(N)NCCC[C@@H](N)C(=O)NCCN1CCN(CCCC2CCN(CC(=O)N3c4ccccc4NC(=O)c4ccccc43)CC2)CC1 observed_measurement=7.93
compound_string=CC(=O)N[C@@H](CCCCN)C(=O)N[C@@H](C)C(=O)N[C@@H](CCCNC(=N)N)C(=O)NCCN1CCN(CCCCC2CCN(CC(=O)N3c4ccccc4NC(=O)c4ccccc43)CC2)CC1 observed_measurement=8.60
compound_string=NC1CCN(CCCCC2CCN(CC(=O)N3c4ccccc4NC(=O)c4ccccc43)CC2)CC1 observed_measurement=8.59
compound_string=Nc1ccccc1C(=O)N1CCC(N2CCC(Cc3ccc(S(=O)(=O)c4cccc(Cl)c4)cc3)CC2)CC1 observed_measurement=6.49
compound_string=CC(=O)N[C@@H](Cc1c[nH]c2ccccc12)C(=O)N[C@@H](C)C(=O)N[C@@H](Cc1ccc(O)cc1)C(=O)NCCCCC1CCN(CC(=O)N2c3ccccc3NC(=O)c3ccccc32)CC1 observed_measurement=7.00
compound_string=NCC(=O)NC1CCN(CC(=O)N2c3ccccc3NC(=O)c3ccccc32)CC1 observed_measurement=5.53

---

Molecular target: Muscarinic acetylcholine receptors; M2 & M3 (Homo sapiens) (UniProt P20309+P08172)
Experiment: Selectivity index, […] for displacement of [3H]NMS from human recombinant muscarinic receptor M3 expressed in CHO cell membranes […] for displacement of [3H]NMS from human recombinant muscarinic receptor M2 expressed in CHO cell membranes
# note: exactly 60 is not below, so it is 0.0; use 1.0 for Selectivity Index strictly under it

compound_string=CC(=O)N[C@@H](Cc1c[nH]c2ccccc12)C(=O)N[C@@H](C)C(=O)N[C@@H](Cc1ccc(O)cc1)C(=O)NCCCCC1CCN(CC(=O)N2c3ccccc3NC(=O)c3ccccc32)CC1 test_system="Muscarinic acetylcholine receptors; M2 & M3 (Homo sapiens) (UniProt P20309+P08172)" label=1.0
compound_string=CCC(=O)NCCNC(=O)CCc1cn(CCCCC2CCN(CC(=O)N3c4ccccc4NC(=O)c4ccccc43)CC2)cn1 test_system="Muscarinic acetylcholine receptors; M2 & M3 (Homo sapiens) (UniProt P20309+P08172)" label=0.0
compound_string=CC(=O)N[C@@H](CCCCN)C(=O)N[C@@H](C)C(=O)N[C@@H](CCCNC(=N)N)C(=O)NCCN1CCN(CCCCC2CCN(CC(=O)N3c4ccccc4NC(=O)c4ccccc43)CC2)CC1 test_system="Muscarinic acetylcholine receptors; M2 & M3 (Homo sapiens) (UniProt P20309+P08172)" label=0.0
compound_string=N=C(N)NCCC[C@@H](N)C(=O)NCCN1CCN(CCCC2CCN(CC(=O)N3c4ccccc4NC(=O)c4ccccc43)CC2)CC1 test_system="Muscarinic acetylcholine receptors; M2 & M3 (Homo sapiens) (UniProt P20309+P08172)" label=0.0
compound_string=CC(=O)N[C@@H](CCCCN)C(=O)N[C@@H](CCCNC(=N)N)C(=O)NCCCCC1CCN(CC(=O)N2c3ccccc3NC(=O)c3ccccc32)CC1 test_system="Muscarinic acetylcholine receptors; M2 & M3 (Homo sapiens) (UniProt P20309+P08172)" label=0.0
compound_string=CCN(CC)CCCCC1CCN(CC(=O)N2c3ccccc3NC(=O)c3ccccc32)CC1 test_system="Muscarinic acetylcholine receptors; M2 & M3 (Homo sapiens) (UniProt P20309+P08172)" label=1.0
